Measurement target: ErbB-3 receptor-Ig fusion (human) (UniProt P21860)
Method notes: phage ELISA, soluble ErbB-3-Ig as competitor
Parameter: EC50. Scope: all listed entries.

Binder: HRG2 (HRG-β1 177-244 displayed on phage) (ligand) SHLVKCAEKEKTFCVNGGECFMVKDLSNPSRYLCKCPNEFTGDRCQNYVMASFYKHLGIEFMEAEELY
EC50, nM: 13

Binder: HRG8 (wild-type HRG-β1 EGF displayed on phage) (ligand) SHLVKCAEKEKTFCVNGGECFMVKDLSNPSRYLCKCPNEFTGDRCQNYVMAS
EC50, nM: 135
